target: kappa opioid receptor (PathHunter U2OS hOPRK1 membranes) (Homo sapiens, UniProt P41145); construct: host or cells: U2OS (PathHunter U2OS hOPRK1 β-arrestin cell line); assay: Tritiated U69,593 binding for KOP-R membranes; settings: 1.0 nM [3H]U69,593, 60 minutes at 30° C.; read-out: Binding IC50
Sequence (P41145 whole entry): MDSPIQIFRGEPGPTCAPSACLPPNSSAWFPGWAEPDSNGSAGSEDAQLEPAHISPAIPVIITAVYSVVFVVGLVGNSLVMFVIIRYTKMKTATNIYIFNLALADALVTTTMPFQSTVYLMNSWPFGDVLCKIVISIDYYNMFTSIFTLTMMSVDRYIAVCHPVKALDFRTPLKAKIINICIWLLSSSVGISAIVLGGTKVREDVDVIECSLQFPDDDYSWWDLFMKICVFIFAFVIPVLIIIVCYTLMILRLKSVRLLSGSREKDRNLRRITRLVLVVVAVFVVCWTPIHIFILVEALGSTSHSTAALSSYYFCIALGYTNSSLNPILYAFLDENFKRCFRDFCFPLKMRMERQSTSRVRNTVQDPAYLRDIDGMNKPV
Readings of IC50 for the listed compounds

compound	IC50
CN(C)[C@H]1COC[C@H]2NCCN(C(=O)Cc3ccc(Cl)c(Cl)c3)[C@@H]21 (racemic)	120 nM
CCN(CC)[C@H]1COC[C@H]2NCCN(C(=O)Cc3ccc(Cl)c(Cl)c3)[C@@H]21 (racemic)	1920 nM
O=C(Cc1cccc(Cl)c1)N1CCN[C@@H]2COC[C@H](N3CCCC3)[C@H]21 (single isomer, unassigned) [Example 5A24A]	463 nM
O=C(Cc1cccc(Cl)c1)N1CCN[C@@H]2COC[C@H](N3CCCC3)[C@H]21 (racemic) [Example 5A24]	251 nM
O=C(Cc1cccc(Cl)c1)N1CCN[C@H]2COC[C@@H](N3CCCC3)[C@@H]21 (single isomer, unassigned) [Example 5A24B]	1130 nM
O=C(Cc1cccc(C(F)(F)F)c1)N1CCN[C@@H]2COC[C@H](N3CCCC3)[C@H]21 (racemic)	112 nM

###

Below, each of the compounds is paired with its reported pIC50 value.
biological target: kappa opioid receptor (PathHunter U2OS hOPRK1 membranes) (Homo sapiens, UniProt P41145); construct: host or cells: U2OS (PathHunter U2OS hOPRK1 β-arrestin cell line); experiment: Tritiated U69,593 binding for KOP-R membranes
pIC50: −log10 of the molar value.

compound	pIC50
CS(=O)(=O)N1CCN(C(=O)Cc2ccc(Cl)c(Cl)c2)[C@H]2[C@H]1COC[C@@H]2N1CCCC1 (racemic) [Example 5A44]	7.72
O=C(Cc1ccc(Cl)c(Cl)c1)N1CCN(CC2CCC2)[C@@H]2COC[C@H](N3CCCC3)[C@H]21 (single isomer, unassigned) [Example 5A55A]	7.03
O=C(Cc1ccc(Cl)c(Cl)c1)N1CCN(Cc2ccccc2)[C@@H]2COC[C@H](N3CCCC3)[C@H]21 (racemic) [Example 5A53]	7.40
O=C(Cc1ccc(Cl)c(F)c1)N1CCN[C@@H]2COC[C@H](N3CCCC3)[C@H]21 (racemic) [Example 5A65]	7.17
CN(CC1CC1)[C@H]1COC[C@H]2NCCN(C(=O)Cc3ccc(Cl)c(Cl)c3)[C@@H]21 (racemic) [Example 5A50]	6.53
CS(=O)(=O)N1CCN(C(=O)Cc2ccc(Cl)c(Cl)c2)[C@H]2[C@H](N3CCCC3)COC[C@@H]21 (single isomer, unassigned) [Example 5A44B]	7.74
O=C(Cc1ccc(Cl)c(Cl)c1)N1CCN(CC2CCC2)[C@H]2COC[C@@H](N3CCCC3)[C@@H]21 (single isomer, unassigned) [Example 5A55B]	7.70
Cc1ccc(CC(=O)N2CCN[C@@H]3COC[C@H](N4CCCC4)[C@H]32)cc1Cl (racemic) [Example 5A57]	7.38
O=C(Cc1ccc(Cl)c(Cl)c1)N1CCN(CC2CC2)[C@@H]2COC[C@H](N3CCCC3)[C@H]21 (racemic) [Example 5A70]	7.15

###

target: human kappa opioid receptors (Homo sapiens); construct: expressed in transfected cells; host or cells: U2OS; experiment: [35S]GTPγS stimulation, membranes from U2OS cells; format: biochemical
Sequence (P41145 whole entry): as above
pEC50: −log10 of the molar value.

compound	pEC50
O=C(Cc1cccc(Cl)c1)N1CCN[C@H]2COC[C@@H](N3CCCC3)[C@@H]21 (single isomer, unassigned) [Example 5A24B]	5.86
O=C(Cc1cccc(Cl)c1)N1CCN[C@@H]2COC[C@H](N3CCCC3)[C@H]21 (racemic) [Example 5A24]	6.67
CCN(CC)[C@H]1COC[C@H]2NCCN(C(=O)Cc3ccc(Cl)c(Cl)c3)[C@@H]21 (racemic)	5.67
